Origin of the recorded values: patent US9000044B2

# System name: human CRTH2 (Homo sapiens (Human))
# Sequence (Q9Y5Y4 whole entry): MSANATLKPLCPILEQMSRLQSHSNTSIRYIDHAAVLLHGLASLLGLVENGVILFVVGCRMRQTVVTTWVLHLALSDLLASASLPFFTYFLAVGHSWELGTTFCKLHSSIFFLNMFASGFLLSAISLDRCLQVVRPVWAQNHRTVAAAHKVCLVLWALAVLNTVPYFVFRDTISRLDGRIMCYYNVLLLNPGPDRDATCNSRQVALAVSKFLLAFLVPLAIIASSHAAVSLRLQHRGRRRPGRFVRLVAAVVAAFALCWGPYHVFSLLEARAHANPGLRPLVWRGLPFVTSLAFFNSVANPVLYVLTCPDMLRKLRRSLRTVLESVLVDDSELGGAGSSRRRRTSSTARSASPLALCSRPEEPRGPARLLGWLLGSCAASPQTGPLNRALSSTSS
# Method summary: Calcium Flux Assay Using Fluorometric Imaging Plate Reader (FLIPR)
# Assay type: cell-based
# Settings: CHO-K1 cells with G-alpha 16 and human CRTH2; inhibition of DK-PGD2 ligand-induced Ca2+ flux
IC50 strictly under 1 nM means fulfilled; at 1 nM or over means not fulfilled.

As a guide, the following entries are already answered.
Is IC50 strictly under 1 nM for the entry Cc1c(CC(=O)O)cc2ccc(F)cc2c1-c1ccc(S(C)(=O)=O)cn1 ?
not fulfilled

Below 1 nM on IC50? Entry Cc1c(CC(=O)O)cc2ccc(F)cc2c1-c1ccc(S(=O)(=O)c2c(F)cccc2F)cc1
not fulfilled

Would you kindly verify if IC50 of Cc1c(CC(=O)O)cc2ccc(Cl)cc2c1-c1ccc(S(=O)(=O)Nc2ccc(OC(F)(F)F)cc2)cc1 is strictly less than 1 nM?
not fulfilled

Here's an entry: Cc1c(CC(=O)O)cc2ccc(Cl)cc2c1-c1ccc(S(=O)(=O)c2ccc(F)cc2F)cc1 . Is its IC50 below 1 nM?
not fulfilled

Is IC50 of Cc1c(CC(=O)O)cc2ccc(Cl)cc2c1-c1ccc(S(=O)(=O)c2ccccc2OC(F)(F)F)cc1 strictly below 1 nM?
not fulfilled

Others:
Record COc1ccc(CNS(=O)(=O)c2ccc(-c3c(C)c(CC(=O)O)cc4ccc(Cl)cc34)cc2)cc1 : is its IC50 strictly below 1 nM?
not fulfilled

Hello, I'm reviewing records and need to know if IC50 of Cc1c(CC(=O)O)cc2ccc(F)cc2c1-c1ccc(S(=O)(=O)NC2CCCCC2)cc1 is below 1 nM. Could you check?
not fulfilled

Strictly below 1 nM in IC50? Cc1c(CC(=O)O)cc2ccc(F)cc2c1-c1ccc(S(=O)(=O)c2ccccc2C(F)(F)F)cc1
not fulfilled

Answer whether the compound Cc1ccc(NS(=O)(=O)c2ccc(-c3c(C)c(CC(=O)O)cc4ccc(F)cc34)cc2)cc1 has IC50 strictly less than 1 nM
fulfilled
